Below, each entry is listed with its recorded inhibition at 1.1 µM.
experimental_system: HIV-1 protease (Human immunodeficiency virus type 1 group M subtype B, UniProt P04585)
test_summary: biochemical
experimental_conditions: Table I; Dose 1.100 μM; read-out: Protease % Inhib
Provide a numeric answer, followed by its unit.

- molecule: "CC(C)(C)C(C1=C(O)CC(CCC2CC2)(CCC2CC2)OC1=O)c1cccc(NS(=O)(=O)c2ccc(C#N)cn2)c1 (stereo not drawn)"
  inhibition at 1.1 µM: "57.8%"
- molecule: "CCC(CCOCCOC)c1cc(O)c(C(c2cccc(NS(=O)(=O)c3ccc(C#N)cc3)c2)C2CC2)c(=O)o1 (stereo not drawn)"
  inhibition at 1.1 µM: "93.7%"

Task: Any idea what inhibition at 1.1 µM came out for CN(c1cccc(C(c2c(O)c3c(oc2=O)CCCCCC3)C2CC2)c1)S(=O)(=O)c1cn(C)cn1 (stereo not drawn) on HIV-1 protease (Human immunodeficiency virus type 1 group M subtype B, UniProt P04585)?
Result: 90.8%

----------
PROTEASE % INHIB. values, listed per item
experimental_system: HIV-1 protease (Human immunodeficiency virus type 1 group M subtype B)
test_summary: biochemical
experimental_conditions: Table II; enzyme HIV-1; DOSE 3.300 (unit not given)
Answer in %, number only, no unit symbol.

- compound: "CCC[C@@]1(CCc2ccccc2)CC(O)=C([C@H](CC)c2cccc(NS(=O)(=O)c3ccc(N)cn3)c2)C(=O)O1 (single isomer, unassigned) [Example 315]"
  assay_result: 97.03
- compound: "Cn1cnc(S(=O)(=O)Nc2cccc(C(C3=C(O)CC(CCc4ccccc4)(CCC(F)(F)F)OC3=O)C(C)(C)C)c2)c1 (single isomer, unassigned) [Example 273]"
  assay_result: 94.63

Consider the record given below.
Task: What measured PROTEASE % INHIB. goes with Nc1ccc(S(=O)(=O)Nc2cccc(CC3=C(O)CC(CCc4ccccc4)(CCc4ccccc4)OC3=O)c2)nc1 ?
Result: 46.1

----------
experimental_system: HIV-1 protease (Human immunodeficiency virus type 1 group M subtype B, UniProt P04585)
test_summary: biochemical
experimental_conditions: Table I; read-out: HIV Protease FITC Assay Ki
Below, each of the compounds is paired with its reported Ki value.

Task: Record request: Ki value, item CCCC1(CCC)CC(O)=C(C(CC)c2cccc(NS(=O)(=O)c3cn(C)cn3)c2)C(=O)O1 (single isomer, unassigned) [Example 53]
Result: 0.9 nM

Task: Return reported Ki; argument: CCCC1(CCC)CC(O)=C(C(c2cccc(NS(=O)(=O)c3cn(C)cn3)c2)C2CC2)C(=O)O1 (single isomer, unassigned) [Example 57]
Result: 0.36 nM

Task: Need Ki of CCC(Cc1ccccc1)c1cc(O)c(C(c2cccc(NS(=O)(=O)c3ccc([N+](=O)[O-])cc3)c2)C2CC2)c(=O)o1 (centres unmarked) , thanks.
Result: 5.9 nM

Task: What Ki value was documented for this compound, CC[C@H](Cc1ccccc1)c1cc(O)c(C(c2cccc(NS(=O)(=O)c3ccccn3)c2)C2CC2)c(=O)o1 (single isomer, unassigned) [Example 141] ?
Result: 1.4 nM

Task: I have this compound here, CCC(C1=C(O)CC(CCc2ccc(F)cc2)(CCc2ccc(F)cc2)OC1=O)c1cccc(NS(=O)(=O)c2cn(C)cn2)c1 (centres unmarked) , and I need its recorded Ki.
Result: 4.3 nM

Task: Which Ki is reported for this compound? CC[C@@H](Cc1ccccc1)c1cc(O)c(C(c2cccc(NS(=O)(=O)c3cn(C)cn3)c2)C2CC2)c(=O)o1 (single isomer, unassigned) [Example 139]
Result: 1.89 nM

Data provenance is patent US6169181A.
